# SUBJECT OF TEST: wt ClpB (Escherichia coli, UniProt P63284)
# Construct: made in house
# Sequence (P63284 whole entry): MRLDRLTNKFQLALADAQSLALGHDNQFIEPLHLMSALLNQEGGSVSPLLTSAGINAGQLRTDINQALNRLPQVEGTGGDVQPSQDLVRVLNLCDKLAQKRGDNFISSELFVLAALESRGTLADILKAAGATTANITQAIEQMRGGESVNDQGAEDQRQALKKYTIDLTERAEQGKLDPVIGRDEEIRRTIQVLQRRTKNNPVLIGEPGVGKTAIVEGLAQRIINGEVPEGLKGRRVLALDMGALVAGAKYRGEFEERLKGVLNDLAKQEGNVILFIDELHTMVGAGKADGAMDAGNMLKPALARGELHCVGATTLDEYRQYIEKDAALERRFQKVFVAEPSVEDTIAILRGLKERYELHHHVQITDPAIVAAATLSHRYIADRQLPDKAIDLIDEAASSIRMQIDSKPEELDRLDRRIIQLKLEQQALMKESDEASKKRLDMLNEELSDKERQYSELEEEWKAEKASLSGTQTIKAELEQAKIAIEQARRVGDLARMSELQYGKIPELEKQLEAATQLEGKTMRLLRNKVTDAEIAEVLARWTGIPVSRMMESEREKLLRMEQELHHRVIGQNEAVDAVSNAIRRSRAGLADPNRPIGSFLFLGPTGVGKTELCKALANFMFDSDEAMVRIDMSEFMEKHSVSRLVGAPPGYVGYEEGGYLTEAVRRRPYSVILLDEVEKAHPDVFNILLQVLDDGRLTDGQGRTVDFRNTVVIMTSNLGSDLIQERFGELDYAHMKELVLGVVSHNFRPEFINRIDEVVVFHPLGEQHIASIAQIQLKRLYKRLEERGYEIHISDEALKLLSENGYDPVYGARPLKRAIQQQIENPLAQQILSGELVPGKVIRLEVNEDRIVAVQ
# PROTOCOL: Surface plasmon resonance, immobilized wt ClpB
# Type: binding
# PARTICULARS: SPR, preliminary; read-out: dissociation constant, control titration of immobilized ClpB
Form field: Kd (one value per entry).

Nc1ncnc2c1ncn2[C@@H]1O[C@H](CO)[C@@H](O)[C@H]1O    ~2000 µM

Ask: What value of Kd has been recorded for this entry: Nc1ncnc2c1ncn2[C@@H]1O[C@H](CO[P@](=O)(O)O[P@](=O)(O)O[P@@](=O)(O)S)[C@@H](O)[C@H]1O
Reply: ~20 µM

* * *

# SUBJECT OF TEST: ClpB–DnaK bichaperone system (DnaK–DnaJ–GrpE + ClpB) (Escherichia coli, UniProt P0A6Y8+P63284)
# Construct: full-length E. coli DnaK (residues 1–638)
# Sequence (P0A6Y8 whole entry, one chain of several, the tested form may be a part): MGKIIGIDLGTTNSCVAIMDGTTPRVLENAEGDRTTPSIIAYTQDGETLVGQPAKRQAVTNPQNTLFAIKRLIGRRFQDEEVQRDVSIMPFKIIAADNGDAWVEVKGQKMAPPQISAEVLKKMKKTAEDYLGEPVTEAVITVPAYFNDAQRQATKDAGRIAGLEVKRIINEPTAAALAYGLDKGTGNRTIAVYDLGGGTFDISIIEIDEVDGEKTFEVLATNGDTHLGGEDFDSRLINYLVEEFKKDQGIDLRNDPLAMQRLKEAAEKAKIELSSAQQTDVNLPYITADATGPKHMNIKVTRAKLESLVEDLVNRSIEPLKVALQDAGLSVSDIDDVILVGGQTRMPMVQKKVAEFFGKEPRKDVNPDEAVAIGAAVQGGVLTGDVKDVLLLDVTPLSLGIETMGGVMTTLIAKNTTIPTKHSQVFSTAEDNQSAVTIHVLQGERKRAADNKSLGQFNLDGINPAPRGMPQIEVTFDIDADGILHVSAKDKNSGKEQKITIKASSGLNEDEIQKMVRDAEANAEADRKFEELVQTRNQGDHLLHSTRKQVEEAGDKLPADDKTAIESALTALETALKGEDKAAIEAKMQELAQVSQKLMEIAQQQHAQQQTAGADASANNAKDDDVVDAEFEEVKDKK
# PROTOCOL: Aggregate reactivation assay with KJE + ClpB
PROPERTY NAME: IC50

Ask: What value of IC50 has been recorded for this entry: c1ccc(CNc2nc(NCc3ccccc3)c3ccccc3n2)cc1
Reply: ~5 µM

* * *

# SUBJECT OF TEST: ClpB W462F (Escherichia coli, UniProt P63284, W462F)
# Sequence (P63284 whole entry W462F, looked up): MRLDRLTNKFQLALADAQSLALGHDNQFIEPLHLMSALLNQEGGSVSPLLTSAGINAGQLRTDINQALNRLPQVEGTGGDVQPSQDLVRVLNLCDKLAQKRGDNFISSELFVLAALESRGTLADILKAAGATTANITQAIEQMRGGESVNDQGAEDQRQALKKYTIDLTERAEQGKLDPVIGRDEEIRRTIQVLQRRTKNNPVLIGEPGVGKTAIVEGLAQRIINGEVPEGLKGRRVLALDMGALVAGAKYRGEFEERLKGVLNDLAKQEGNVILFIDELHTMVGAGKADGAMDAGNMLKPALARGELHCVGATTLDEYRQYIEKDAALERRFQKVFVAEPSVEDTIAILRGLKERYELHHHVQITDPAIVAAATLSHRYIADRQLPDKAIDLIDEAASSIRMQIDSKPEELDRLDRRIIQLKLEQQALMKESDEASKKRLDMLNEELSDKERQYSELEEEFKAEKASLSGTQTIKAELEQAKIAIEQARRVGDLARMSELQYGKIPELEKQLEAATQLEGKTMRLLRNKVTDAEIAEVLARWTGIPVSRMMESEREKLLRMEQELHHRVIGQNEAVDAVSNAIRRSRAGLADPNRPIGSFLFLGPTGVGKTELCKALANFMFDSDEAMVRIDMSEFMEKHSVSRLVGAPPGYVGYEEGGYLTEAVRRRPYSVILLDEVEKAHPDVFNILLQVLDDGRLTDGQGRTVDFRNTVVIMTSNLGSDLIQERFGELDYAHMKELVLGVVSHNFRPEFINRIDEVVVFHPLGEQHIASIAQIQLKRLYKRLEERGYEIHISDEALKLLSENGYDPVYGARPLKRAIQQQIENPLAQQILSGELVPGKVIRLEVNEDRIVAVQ
# PROTOCOL: Surface plasmon resonance, immobilized ClpB W462F
PROPERTY NAME: pKd
Entry type: numeric. Quantity: pKd, the -log10 of concentration in molar units.

Ask: Give ClpB W462F (Escherichia coli, UniProt P63284, W462F) pKd for c1ccc(CNc2nc(NCc3ccccc3)c3ccccc3n2)cc1
Reply: 4.21

* * *

# SUBJECT OF TEST: ClpB W543F (Escherichia coli, UniProt P63284, W543F)
# Sequence (P63284 whole entry W543F, looked up): as the sequence (P63284 whole entry W462F, looked up) above, with F462W, W543F counted along it
# PROTOCOL: Surface plasmon resonance, immobilized ClpB W543F
# Procedure: ClpB, DnaK, and the NBD of DnaK were extensively dialyzed against the SPR buffer (20-mM Hepes, pH 7.4, 150-mM NaCl, 20-mM MgCl2, 1-mM EDTA, 1-mM DTT). After dialysis, the protein concentration was determined by the Bradford method. The DBeQ–protein interactions were studied using a Biacore T200 instrument (GE Healthcare) at 25 °C. […] The resulting sensorgrams were analyzed using Biacore T200 Evaluation Software v3.0 according to the following procedure. […]
PROPERTY NAME: Kd (µM)
Your answer is read as µM, so omit the unit and give the number.

Ask: What value of Kd has been recorded for this entry: c1ccc(CNc2nc(NCc3ccccc3)c3ccccc3n2)cc1
Reply: 59.1
